# Imax listing for each entry below
- Test System: Mu-type opioid receptor (Homo sapiens)
- Sequence (P35372 whole entry): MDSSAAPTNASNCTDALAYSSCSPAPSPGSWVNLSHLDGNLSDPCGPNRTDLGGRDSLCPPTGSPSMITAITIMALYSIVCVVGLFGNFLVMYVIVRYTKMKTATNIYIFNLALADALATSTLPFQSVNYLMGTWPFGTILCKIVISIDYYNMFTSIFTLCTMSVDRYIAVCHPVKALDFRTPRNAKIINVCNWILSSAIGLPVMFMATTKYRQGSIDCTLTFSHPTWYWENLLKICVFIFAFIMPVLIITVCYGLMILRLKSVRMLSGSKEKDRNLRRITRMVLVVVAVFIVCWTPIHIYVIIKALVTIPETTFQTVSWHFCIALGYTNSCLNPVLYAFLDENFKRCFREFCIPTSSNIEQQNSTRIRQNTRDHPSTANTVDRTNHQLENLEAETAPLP
- Method Summary: Antagonist activity at human mu opioid receptor expressed in CHO cells assessed as inhibition of DAMGO-induced [35S]GTPgammaS binding
- Type: functional, cell-based

Consider the molecule shown here: `C[C@H]1C2Cc3cc4nc[nH]c4cc3[C@@]1(C)CCN2CC1CC1` What is its recorded Imax?
89%

Consider the molecule shown here: `Cc1nc2cc3c(cc2[nH]1)[C@@]1(C)CCN(CC2CC2)C(C3)[C@@H]1C` What is its recorded Imax?
100%

Consider the molecule shown here: `C[C@H]1C2Cc3ccc4[nH]nnc4c3[C@@]1(C)CCN2CC1CC1` What is its recorded Imax?
98%
